B1: PPEF2 (parent)
chain: DHSGFISLDEFRQTWKLFSSHMNI

Variants of: B1
experiment-notes: protein stability index of a GFP-peptide fusion (GPS, HEK-293T) (PSI 1-6); higher = more stable;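 further: lentivirally expressed fusions sorted by FACS into six bins by GFP to DsRed ratio, PSI derived from sequencing read proportions per bin multiplied by bin number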
test-conditions: c terminus: a fixed tail appended
observation-type: protein stability index
Form field (numeric): enter value without unit.

[[record]]
variant_description = "G4W"
result_number = 1.98


Measured protein stability index, `K16R` : 2.02

Measured protein stability index, `F18A` : 1.96

Measured protein stability index, `L17Y` : 2.03

Measured protein stability index, `F18C` : 2.02

Measured protein stability index, `S20P` : 1.96

Measured protein stability index, `Q13G` : 1.96

Measured protein stability index, `L17S` : 2

Measured protein stability index, `I24V` : 2.01

Data provenance: the supplement of paper PMC10567573
